Form field: Expression (one value per entry).
# System: HEK293 cells
# Assay type: cell-based, human
# Experimental conditions: luminescence from secreted Gluc in supernatant 24 hours after transfection of HEK293 cells; circular RNA encoding Gluc with the named IRES (UTR truncated to 675 nt)
Lab note: record just the number, no unit beside it.

Molecule	Obs value
PSIV IGR (nucleic acid, Plautia stali intestine virus) DNA: GCTGACTATGTGATCTTATTAAAATTAGGTTAAATTTCGAGGTTAAAAATAGTTTTAATATTGCTATAGTCTTAGAGGTCTTGTATATTTATACTTACCACACAAGATGGACCGGAGCAGCCCTCCAATATCTAGTGTACCCTCG	1.01E+05

API: the following record is the query input.
Query (molecule): PTV A (nucleic acid, Teschovirus A) DNA: ACTAGTCCTTGGACTTTTGTTGTGTTTAAACACAGAAATTTAATTACCTGGCCATGAATTCATTGGATTAACCCTTCTGAAAGACTTGCTCTGGCGCGAGCTAAAGCGCAATTGTCACCAGGTATTGCACCAGTGGTGGCGACAGGGTACAGAAGAGCAAGTACTCCTGACCGGGCAATGGGACTGCATTGCATATCCCTAGGCACCTATTGAGATTTCTCTGGGGCCCACCGGCGTGGAGTTCCTGTATGGGAATGCAGGACTGGACTTGTGCTGCCTGACAGGGTCGCGGCTGGCCGTCTGTACTTTGTATAGTCAGTTGAAACTCACC ; field requested: Expression
7.29E+05

All figures here come from patent US20230226096A1.
